system: P388 leukemia ip, CD2F1 mice, survival T/C; test: NCI In Vivo Anticancer Drug Screen. Data for tumor model P388 Leukemia (intraperitoneal) in CD2F1 (CDF1) mice; conditions: endpoint: median survival time; dose: 100.0 mg/kg/injection; schedule: Q01DX005 (ip); vehicle: saline with Tween-80; higher = longer survival
Inconclusive results and toxic doses are left out.
outcome-measure: T/C

Assay P388 leukemia ip, CD2F1 mice, survival T/C, sample "COc1ccc(S(=O)(=O)N/N=C/c2cccc([N+](=O)[O-])c2O)cc1" , T/C read: 100 % of control

Assay P388 leukemia ip, CD2F1 mice, survival T/C, sample "CC1=NOC(=O)/C1=C/c1ccc(Cl)c(Cl)c1" , T/C read: 114 % of control

Assay P388 leukemia ip, CD2F1 mice, survival T/C, sample "C=C(c1ccc(N(CC)CC)cc1)c1ccc(N(CC)CC)cc1" , T/C read: 103 % of control

Assay P388 leukemia ip, CD2F1 mice, survival T/C, sample "Cc1cc(NC(=O)c2ccc(NC(=O)c3ccc(N)cc3)cc2)ccc1N=Nc1ccc2c(O)c(N=Nc3ccc4cc(S(=O)(=O)O)ccc4c3)c(S(=O)(=O)O)cc2c1" , T/C read: 103 % of control

Assay P388 leukemia ip, CD2F1 mice, survival T/C, sample CC1CN(Cc2ccccc2)CCC1N1CCCC1 (stereo not given) , T/C read: 107 % of control

Assay P388 leukemia ip, CD2F1 mice, survival T/C, sample "CCn1c2ccccc2c2cc(NC(=S)NC(=O)c3cccs3)ccc21" , T/C read: 90 % of control

Assay P388 leukemia ip, CD2F1 mice, survival T/C, sample "CC(=O)N1c2ccccc2Oc2ccc3ccccc3c21" , T/C read: 100 % of control

Assay P388 leukemia ip, CD2F1 mice, survival T/C, sample "CNC(=O)N(C)C(=O)c1ccncc1C(=O)N(C(=O)NC1CCCCC1)C1CCCCC1" , T/C read: 89 % of control

Assay P388 leukemia ip, CD2F1 mice, survival T/C, sample "Cc1ccc(-c2nc3c(C)nc(-c4ccccc4)nc3n2Nc2ccccc2)cc1" , T/C read: 90 % of control

Assay P388 leukemia ip, CD2F1 mice, survival T/C, sample "Cc1cccc(NC(=S)/N=C(\SCc2ccccc2)N(C)c2ccccc2)c1" , T/C read: 93 % of control

The measurements presented in this section are drawn from PubChem BioAssay AID330.
